Where do the numbers come from? From patent US20030114402A1.

biological target: DNA cytosine-5 methyltransferase (DCMTase, Dnmt1) (Mus musculus, UniProt P13864 P13864:1-1620); assay: EMSA; unit printed as mM (text indicates micromolar); free enzyme; details: tags: none; purified from mouse erythroleukemia (MEL) cells
Sequence (P13864 whole entry, one chain of several): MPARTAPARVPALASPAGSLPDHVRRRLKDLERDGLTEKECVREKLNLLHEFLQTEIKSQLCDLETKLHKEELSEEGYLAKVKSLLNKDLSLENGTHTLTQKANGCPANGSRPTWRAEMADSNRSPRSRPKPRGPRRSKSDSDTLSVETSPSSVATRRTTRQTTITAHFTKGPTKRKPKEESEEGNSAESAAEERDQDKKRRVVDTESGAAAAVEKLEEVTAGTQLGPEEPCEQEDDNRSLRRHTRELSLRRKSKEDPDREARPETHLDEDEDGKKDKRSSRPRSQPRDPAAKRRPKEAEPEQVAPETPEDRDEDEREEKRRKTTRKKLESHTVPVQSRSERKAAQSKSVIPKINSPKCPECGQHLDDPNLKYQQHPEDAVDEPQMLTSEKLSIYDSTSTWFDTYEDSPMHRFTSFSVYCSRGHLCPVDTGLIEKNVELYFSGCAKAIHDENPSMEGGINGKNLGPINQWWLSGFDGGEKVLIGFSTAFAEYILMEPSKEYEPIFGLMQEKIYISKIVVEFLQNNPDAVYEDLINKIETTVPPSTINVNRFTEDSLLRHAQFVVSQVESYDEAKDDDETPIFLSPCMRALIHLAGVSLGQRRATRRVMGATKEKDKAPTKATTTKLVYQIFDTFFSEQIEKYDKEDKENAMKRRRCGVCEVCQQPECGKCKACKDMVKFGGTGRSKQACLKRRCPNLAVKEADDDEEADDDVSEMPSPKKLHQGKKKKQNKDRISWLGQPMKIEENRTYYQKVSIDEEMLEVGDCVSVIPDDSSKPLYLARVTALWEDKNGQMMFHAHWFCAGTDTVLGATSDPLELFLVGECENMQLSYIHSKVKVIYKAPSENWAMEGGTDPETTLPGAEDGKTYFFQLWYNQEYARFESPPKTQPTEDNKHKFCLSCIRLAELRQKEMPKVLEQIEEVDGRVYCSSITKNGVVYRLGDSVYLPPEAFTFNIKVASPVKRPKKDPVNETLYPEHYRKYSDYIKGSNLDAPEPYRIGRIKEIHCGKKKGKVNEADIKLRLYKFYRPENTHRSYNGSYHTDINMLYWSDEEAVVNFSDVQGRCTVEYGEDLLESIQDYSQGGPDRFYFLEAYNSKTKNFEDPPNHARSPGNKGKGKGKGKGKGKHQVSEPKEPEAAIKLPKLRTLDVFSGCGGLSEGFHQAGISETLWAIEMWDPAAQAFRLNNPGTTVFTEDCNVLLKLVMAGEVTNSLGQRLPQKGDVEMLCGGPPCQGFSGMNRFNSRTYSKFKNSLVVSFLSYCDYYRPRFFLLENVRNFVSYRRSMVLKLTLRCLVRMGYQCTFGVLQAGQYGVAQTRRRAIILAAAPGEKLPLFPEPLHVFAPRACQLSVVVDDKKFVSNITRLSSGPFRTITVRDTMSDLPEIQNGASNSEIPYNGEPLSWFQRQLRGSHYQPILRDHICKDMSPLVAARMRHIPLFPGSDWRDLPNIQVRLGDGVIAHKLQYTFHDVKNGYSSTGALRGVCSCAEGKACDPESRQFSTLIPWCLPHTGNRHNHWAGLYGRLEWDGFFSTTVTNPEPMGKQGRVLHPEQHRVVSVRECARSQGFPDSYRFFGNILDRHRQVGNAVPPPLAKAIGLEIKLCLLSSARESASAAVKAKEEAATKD
pKd: −log10 of the molar value.

BINDER | pKd
CTGGATCCTTGCCCCGCCCCTTGAATTCCC (ssDNA, 5mC at position 15 (central CpG)) [GC-box bMET] | 6.06
